Target: CD73 on U138 neuroglioma cells (Homo sapiens, UniProt P21589)
Construct: U138 neuroglioma cells, which express CD73 on their surface; endogenous in cells; host or cells: U138 neuroglioma cells (ATCC)
Sequence (P21589 27-549): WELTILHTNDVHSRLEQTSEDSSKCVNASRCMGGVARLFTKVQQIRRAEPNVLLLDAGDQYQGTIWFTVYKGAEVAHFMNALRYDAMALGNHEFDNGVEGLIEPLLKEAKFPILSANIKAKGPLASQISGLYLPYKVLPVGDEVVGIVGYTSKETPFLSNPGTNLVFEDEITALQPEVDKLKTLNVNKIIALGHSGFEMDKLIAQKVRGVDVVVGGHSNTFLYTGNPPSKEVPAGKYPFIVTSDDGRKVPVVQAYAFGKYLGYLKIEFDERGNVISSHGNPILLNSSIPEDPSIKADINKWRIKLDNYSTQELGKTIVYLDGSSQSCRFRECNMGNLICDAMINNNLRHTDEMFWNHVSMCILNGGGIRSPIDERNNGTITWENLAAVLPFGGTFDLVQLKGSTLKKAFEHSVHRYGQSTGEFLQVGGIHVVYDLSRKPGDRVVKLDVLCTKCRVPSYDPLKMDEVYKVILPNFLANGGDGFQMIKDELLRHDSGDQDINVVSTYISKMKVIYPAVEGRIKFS
Protocol Details: Inhibition of Ecto-5′-Nucleotidase Activity in U138 Neuroglioma Cells (Assay 2)
Type: cell-based
Condition Label: 50 μM CMP, 2 hr at 37° C., malachite green readout, read-out: Assay 2: IC50, inhibition of ecto-5′-nucleotidase activity in U138 neuroglioma cells
Entries annotated with measured IC50

Solved entries:
compound="Nc1nc(I)nc2c1ncn2[C@@H]1O[C@H](CO[C@H](C(=O)O)P(=O)(O)O)[C@@H](O)[C@H]1O [Example 59]" reported_metric=IC50 test_value="100 to 1000 nM"
compound="CCOC(=O)C(SC[C@H]1O[C@@H](n2cnc3c(N)nc(Cl)nc32)[C@H](O)[C@@H]1O)P(=O)(O)O (stereo partly drawn) [Example 99]" reported_metric=IC50 test_value="100 to 1000 nM"
compound="CCOC(=O)[C@@H](OC[C@H]1O[C@@H](n2cnc3c(N)nc(-c4ncco4)nc32)[C@H](O)[C@@H]1O)P(=O)(O)O (single isomer, unassigned) [Example 49a]" reported_metric=IC50 test_value="> 1000 nM"
compound="CCNC(=O)[C@@H](OC[C@H]1O[C@@H](n2cnc3c(NCC)nc(Cl)nc32)[C@H](O)[C@@H]1O)P(=O)(O)O (single isomer, unassigned) [Example 34a]" reported_metric=IC50 test_value="< 100 nM"
compound="CC(C)(C)OC(=O)[C@@H](OC[C@H]1O[C@@H](n2cnc3c(N)nc(Cl)nc32)[C@H](O)[C@@H]1O)P(=O)(O)O (single isomer, unassigned) [Example 15a]" reported_metric=IC50 test_value="100 to 1000 nM"

Give its IC50 value. Item: CCOC(=O)[C@H](OC[C@H]1C[C@@H](n2cnc3cccc(C#N)c3c2=O)[C@H](O)[C@@H]1O)P(=O)(O)O [Example 73]
100 to 1000 nM

###

Target: CD73 on U138 neuroglioma cells (Homo sapiens, UniProt P21589)
Construct: U138 neuroglioma cells, which express CD73 on their surface; endogenous in cells; host or cells: U138 neuroglioma cells (ATCC)
Protocol Details: Inhibition of Ecto-5′-Nucleotidase Activity in U138 Neuroglioma Cells (Assay 2)
Assay type: cell-based
Condition Label: 50 μM CMP, 2 hr at 37° C., malachite green readout, read-out: Assay 2: IC50, inhibition of ecto-5′-nucleotidase activity in U138 neuroglioma cells
Reported Metric: IC50

compound="Cc1nc(C)c2ncn([C@@H]3O[C@H](COC(C(=O)O)P(=O)(O)O)[C@@H](O)[C@H]3O)c2n1 (stereo partly drawn)" test_value="> 1000 nM"
compound=N#Cc1ccccc1CC(OC[C@H]1O[C@@H](n2cnc3c(N)nc(Cl)nc32)[C@H](O)[C@@H]1O)(C(=O)O)C(=O)O test_value="< 100 nM"

Switching to the query record.
Give its IC50 value. Item: CC(C)(C)NC(=O)[C@H](OC[C@H]1O[C@@H](n2cnc3c(N)nc(Cl)nc32)[C@H](O)[C@@H]1O)P(=O)(O)O (single isomer, unassigned)
< 100 nM
